Reported recombinant UMI read abundance (log10) is given for each of the following sequences.
Assay: recombinant UMI read abundance after kanamycin selection (control-corrected) (log10(CPM+1)); higher = more efficient recombination; extreme values may be limits of the assay; sequences stand for … in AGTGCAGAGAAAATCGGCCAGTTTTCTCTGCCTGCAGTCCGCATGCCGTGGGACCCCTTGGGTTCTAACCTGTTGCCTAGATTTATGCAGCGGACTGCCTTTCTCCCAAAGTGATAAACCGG…AGGTTGGTTTCACT; site = the 11-nt donor
Simply state the number, no unit and no words.

Chain sequence: ATCCATACATGGACCGGTTTTCCCGGTAATCCGTATTTGAC (site ATCAATACTGT)
recombinant UMI read abundance (log10): 0
--
Chain sequence: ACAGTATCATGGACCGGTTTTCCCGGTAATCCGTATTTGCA (site TCAGTATCTTA)
recombinant UMI read abundance (log10): 0
--
Chain sequence: TAAGGTCCATGGACCGGTTTTCCCGGTAATCCGTATTTGTA (site TAACGTCCTTA)
recombinant UMI read abundance (log10): 0.0087
--
Chain sequence: ACATTGTCATGGACCGGTTTTCCCGGTAATCCGTATTTGCA (site ACAGTATCTTG)
recombinant UMI read abundance (log10): 1.37
--
Chain sequence: CCCCAAACATGGACCGGTTTTCCCGGTAATCCGTATTTGTA (site CCCCAGACTTA)
recombinant UMI read abundance (log10): 0.00667

Query (sequence): ATGTGGGCATGGACCGGTTTTCCCGGTAATCCGTATTTGGC (site ATGTGGGCTGC) ; field requested: recombinant UMI read abundance (log10) 3.01

Which recombinant UMI read abundance (log10) is reported for this sequence? GAGCCTCCATGGACCGGTTTTCCCGGTAATCCGTATTTGAG (site GAGCCTCCTCT) 0.0215

// returns reported recombinant UMI read abundance (log10) for input CGGTATCCATGGACCGGTTTTCCCGGTAATCCGTATTTGCC (site CGGTATCCTGG) 0

Fill in: recombinant UMI read abundance (log10) of TAGGATACATGGACCGGTTTTCCCGGTAATCCGTATTTGCA (site TAGCATACTTG) is ___ 0.852

---

Test: recombinant barcode read abundance after kanamycin selection (control-corrected) (log10(CPM+1)); higher = more efficient recombination; sequences stand for … in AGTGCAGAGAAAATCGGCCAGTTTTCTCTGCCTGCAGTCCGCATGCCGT…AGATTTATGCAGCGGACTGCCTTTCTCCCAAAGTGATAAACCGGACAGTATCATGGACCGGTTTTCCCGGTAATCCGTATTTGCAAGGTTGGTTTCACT; site = the 11-nt target
Observed property: recombinant barcode read abundance (log10)

Recorded results for 3 sequences are shown here.
Chain sequence: CCGCTACCTTGGGTTCTAACCTGTTGCCT (site CTGCTACCTAG)
Obs value: 0.19
--
Chain sequence: GAGGGCCCTTGGGTTCTAACCTGTTGCAG (site GAGGGCCCTCT)
Obs value: 2.88
--
Chain sequence: CATCAGCCTTGGGTTCTAACCTGTTGCCT (site CATCAGCCTAG)
Obs value: 0.547

I am curious: what recombinant barcode read abundance (log10) value has been reported for TACGCTCCTTGGGTTCTAACCTGTTGCGT (site TACGCTCCTAT) ? 0.501

What does the record list as recombinant barcode read abundance (log10) for TGTCAACCTTGGGTTCTAACCTGTTGCGT (site TGTCAAACTAC) ? 0.0902

Looking for the measured recombinant barcode read abundance (log10) of TATGTGTCTTGGGTTCTAACCTGTTGCCT (site TACGTGTCTAG) , can you help? 0.509

// query recombinant barcode read abundance (log10) value for entry CTTCGGGCTTGGGTTCTAACCTGTTGCAG (site CCTCGGGCTCT) 1.3

I would be grateful if you could share the reported recombinant barcode read abundance (log10) for CTCCAGACTTGGGTTCTAACCTGTTGCAG (site CTGCAGACTCG) . 0.0775

Tell me the measured recombinant barcode read abundance (log10) of TAAGATCCTTGGGTTCTAACCTGTTGCCT (site TAGGCTCCTAG) , please. 0.0611

# get_value(readout='recombinant barcode read abundance (log10)', item= TATTCTACTTGGGTTCTAACCTGTTGCGG (site TATTCTACTAC) ) 0.0937

Data provenance is the supplement of paper PMC11208160.
